# experiment.description: yeast display, Sf9 membrane polyspecificity reagent, FACS + sequencing; frameworks hold sequencing errors

| record.sequence | polyreactivity (PSR sort gate) |
| --- | --- |
| QVQLVESGGGLVQAGGSLRLSCAASGSTISFLIMGWYRQAPGKERELVAAISRSGGRTYYADSVKGRFTISRDNAKNTVYFQMNSLKPEDTAVYYCAADYVSVDRIRYGYWGQGTQVTVSS | high polyreactivity |
| QVQLVESGGGLVQAGGSLRLSCAASGIILYGYSMGWYRQAPGKERELVAAISWDGGSTYYADSVKGRFTISRDNAKNTVYLQMISLIPEDTAVYYCNALGGSEYDYWGQGTQVTVSS | low polyreactivity |
| QVQLVESGGGLVQAGGSLRLSCAASGSIYYYAMGWYRQAPGKEMELVAAITRSGGGTYYADSVKGRFTISRDNAKNTVYLQMNSLKPEDTAVYYCAAARYSRAQPNWTYNYWGQGTQVTVSS | high polyreactivity |
| QVQLVESGGGLVQAGGSLRLSCAASGSTFNKYTMGWYRQAPGKERELVAAISRIGGSTYYADSVKGRFTISRDNAKNTVYLQMNSLKPEDTAVYYCAAPYPIGHDWGQGTQVTVSS | low polyreactivity |
| QVQLVESGGGLVQAGGSLSLSCAASGRIIDWNTMGLYRQAPGKERDLDATISWDGGTKYYADSVKGRFTISRDTAKNTVFLQMNSLKPEDTAVYYCNKSPLNFFRFRATYDYWGQGTQVTVSS | low polyreactivity |
| QVQLVESGGGLVQAGGSLRLSCAASGFIFVLNVMGWYRQAPGKEMELVAAITWSGTSTYYADSVKGRFTISRDNAKNTVYLQMNSLKPEDTAVYYCNADWWSDGYDYWGQGSQVTVSS | low polyreactivity |
| QVQLLESGGGLVQAGGSLRLSCAASGYTFKAYAMGWYRQAPGKERELVAAISRGGRTNYADSVKGRFTISRDNAKYTVYLQMNSLKPEDTAVYYCNTQRQLGERFYDRSRQGDYWGHGTQVTVSS | high polyreactivity |
| QVQLVESGGGLVQAGGSLRLSCAASGRIFGKYAMGWYRQAPGKERELVAAIRITGGSTYYADSVKGRFTISRDNAKNTVYLEMNSLKPEDTAVYYCAAVYLKTYYWGQGTQVTVSS | high polyreactivity |
| QFQLVESGGGLVQAGGSLRLSCAASGFIFGLYAMGWYRQAPGKERELVAAISRSGGSTYYADSVKGRFTISRDNAKNTVYLQMNSLKPEDTAVYYCNARYSWPRANWYDYWGQGTQVTVSS | high polyreactivity |
| QVQLVESGGGLVQAGGSLRLSCAASGFTFYYYAMGWYRQAPGKERELVAAIDTSDGSTYYADSVKGRFTISRDNAKNTVYLQMNSLKPEDTAVYYCAAEVDCVPFLLDYWGQGTQVTVSS | low polyreactivity |
| QVQRVESGGGLVQAGGSLRLSCAPSGRTFGYYAMGWYRQAPGKERELVAAISRGGRTNYADSVKGRFTISRDNAKNTVYLQMNSLQPEDTAVYYCAKSGTIPRYTASYSLLDYWGQGTQVTVSS | low polyreactivity |
| QVQLVESGGGLVQAGGSLRLSCAASGFIFTDYTMGWYRQAPGKERELVAAIDSSGGGTHYADSVKGRFTISRDNAKNTVYLQMNSLKPEDTAVYYCAAADYLIQFWYQYDYWGQGTQVTVSS | low polyreactivity |
